# System: Saccharomyces cerevisiae BY4741 SeMeCo community
# TEST DESCRIPTION: z-score of prototroph abundance vs DMSO median; higher = larger share of this subpopulation than in DMSO controls
# SETUP CONDITIONS: 10 µM; 24 h; SM minimal medium; subpopulation (auxotrophy): Prototroph
Structures can show the parent of a compound that is named as a salt.
REPORTED METRIC: z-score of prototroph abundance
Please respond with just the number, no unit label.

COMPOUND: C[C@H](NCc1ccc(OCc2cccc(F)c2)cc1)C(N)=O [Safinamide]
REPORTED METRIC: z-score of prototroph abundance
MEASUREMENT: -0.89
--
COMPOUND: O=C(Cn1ccnc1[N+](=O)[O-])NCc1ccccc1
REPORTED METRIC: z-score of prototroph abundance
MEASUREMENT: 0.22
--
COMPOUND: COc1cccc2c1C(=O)c1c(O)c3c(c(O)c1C2=O)C[C@@](O)(C(=O)CO)C[C@@H]3O[C@H]1C[C@H](N)[C@H](O[C@@H]2CCCCO2)[C@H](C)O1
REPORTED METRIC: z-score of prototroph abundance
MEASUREMENT: 2.14
--
COMPOUND: CNCCCC1c2ccccc2C=Cc2ccccc21 [Protriptyline hydrochloride]
REPORTED METRIC: z-score of prototroph abundance
MEASUREMENT: -0.57
--
COMPOUND: Cn1c(=O)c2c(ncn2CC(O)CO)n(C)c1=O (stereo not drawn)
REPORTED METRIC: z-score of prototroph abundance
MEASUREMENT: 1.12

query: Entry COC(=O)C1=C(C)NC(C)=C(C(=O)OC2CCCN(Cc3ccccc3)C2)C1c1cccc([N+](=O)[O-])c1 (stereo not drawn) [Benidipine HCl] : reported z-score of prototroph abundance = ?
result: -0.13

query: And N[C@@H](CCC(=O)O)C(=O)O [(S)-Glutamic acid] ?
result: 0.18

query: And CC(C(=O)O)c1ccc(C(=O)c2cccs2)cc1 (stereo not drawn) ?
result: 0.24

query: And O=c1[nH]c(=O)n([C@H]2C[C@H](O)[C@@H](CO)O2)cc1I ?
result: 0.18

query: And CC(=O)OC(C)C[N+](C)(C)C (stereo not drawn) [Methacholine chloride] ?
result: -0.97

query: And COc1cccc2c1C(=O)c1c(O)c3c(c(O)c1C2=O)CC(O)(C(=O)CO)CC3OC1CC(N)C(O)C(C)O1 (stereo not drawn) [Doxorubicin (Adriamycin) HCl] ?
result: -3.54

---

# System: Saccharomyces cerevisiae BY4741 SeMeCo community
# TEST DESCRIPTION: z-score of subpopulation abundance vs DMSO median, subpopulation auxotrophic for LU; higher = larger share of this subpopulation than in DMSO controls
# SETUP CONDITIONS: 10 µM; 24 h; SM minimal medium; subpopulation (auxotrophy): LU
Counter-ions that a name gives are not always drawn.
Each entry falls in a class defined on z-score of subpopulation abundance; the bands are bottom range = under -0.4, center range = from -0.4 up to 0.4, top range = 0.4 and over

See these solved cases before continuing.
MOLECULE: COCC1=C(C(=O)OC(C)OC(=O)OC(C)C)N2C(=O)[C@@H](NC(=O)/C(=N\OC)c3csc(N)n3)[C@H]2SC1 (stereo partly specified) [Cefpodoxime proxetil]
CLASS: center range

MOLECULE: Oc1c(I)cc(I)c2cccnc12 [Diiodohydroxyquinoline]
CLASS: top range

MOLECULE: CCCCCOc1ccccc1/C(=C\SC)n1ccnc1 [Neticonazole Hydrochloride]
CLASS: bottom range

MOLECULE: COCC(=O)Nc1cc(Sc2ccccc2)ccc1N=C(NC(=O)OC)NC(=O)OC [Febantel]
CLASS: center range

MOLECULE: C[N+]1(C)CCC(OC(=O)C(O)(c2ccccc2)C2CCCC2)C1 (stereo unspecified) [Glycopyrrolate]
CLASS: top range

MOLECULE: Nc1nc(N)nc(-c2cc(Cl)ccc2Cl)n1 [Irsogladine]
CLASS: bottom range

MOLECULE: C=CCc1ccc(O)c(-c2ccc(O)c(CC=C)c2)c1 [Honokiol]
CLASS: bottom range

MOLECULE: CCCc1nc(C)c2c(=O)nc(-c3cc(S(=O)(=O)N4CCN(CC)CC4)ccc3OCC)[nH]n12 [Vardenafil HCl Trihydrate]
CLASS: top range

query: State the class of the molecule shown: Cc1cccc(C)c1OCC(C)N (stereo unspecified) [Mexiletine HCl]
result: top range

query: And CC(C)C(=O)Oc1ccc(CO)cc1[C@H](CCN(C(C)C)C(C)C)c1ccccc1 [Fesoterodine Fumarate] ?
result: center range

query: And CC[C@H](Nc1ncnc2[nH]cnc12)c1nc2cccc(F)c2c(=O)n1-c1ccccc1 [Idelalisib (CAL-101, GS-1101)] ?
result: top range

query: And CCCCNC(=O)NS(=O)(=O)c1ccc(C)cc1 [Tolbutamide] ?
result: bottom range

query: And CCCCCOc1ccc(-c2ccc(-c3ccc(C(=O)N[C@H]4C[C@@H](O)[C@@H](O)NC(=O)[C@@H]5[C@@H](O)[C@@H](C)CN5C(=O)[C@H]([C@@H](C)O)NC(=O)[C@H]([C@H](O)[C@@H](O)c5ccc(O)cc5)NC(=O)[C@@H]5C[C@@H](O)CN5C(=O)[C@H]([C@@H](C)O)NC4=O)cc3)cc2)cc1 ?
result: top range

query: And O=C1C(CC[S+]([O-])c2ccccc2)C(=O)N(c2ccccc2)N1c1ccccc1 (racemic) [(+/-)-Sulfinpyrazone] ?
result: center range

query: And CN(C)CC(c1ccc(O)cc1)C1(O)CCCCC1 (stereo unspecified) [Desvenlafaxine] ?
result: center range
